assay: in vivo; settings: male, mouse, iv
Measured Attribute: LD50 at 7 days

[[record]]
compound = "CC(=O)N(CC(O)CO)c1c(Br)c(C(=O)NCC(O)CO)c(Br)c(C(=O)NCC(O)CO)c1Br (stereo not shown) [reference compound]"
result = "~59000 µmol/kg"


====

tested on: erythrocyte morphology; assay: Influence on erythrocyte morphology in rat blood (damage index); format: cell-based; settings: six parts blood to one part test substance, 2 h incubation
Kind request: treat 0.9 as inclusive, so Erythrocyte morphology Damage index 2 h at 0.9 or higher is yes, anything lower is no.

[[record]]
compound = "CC(=O)N(CC(O)CO)c1c(I)c(C(=O)NCC(O)CO)c(I)c(C(=O)NCC(O)CO)c1I (stereo not drawn) [Iohexol, reference compound]"
study_system = "erythrocyte morphology"
assigned_label = "yes"

[[record]]
compound = "CN(C(=O)CC(=O)N(C)c1c(Br)c(C(=O)NC(CO)C(O)CO)c(Br)c(C(=O)NC(CO)C(O)CO)c1Br)c1c(Br)c(C(=O)NC(CO)C(O)CO)c(Br)c(C(=O)NC(CO)C(O)CO)c1Br (stereo not drawn)"
study_system = "erythrocyte morphology"
assigned_label = "no"

[[record]]
compound = "NC(=O)c1c(Br)c(C(=O)NCC(O)CO)c(Br)c(N(CC(O)CO)C(=O)CC(=O)N(CC(O)CO)c2c(Br)c(C(N)=O)c(Br)c(C(=O)NCC(O)CO)c2Br)c1Br (stereo not drawn)"
study_system = "erythrocyte morphology"
assigned_label = "no"

[[record]]
compound = "CN(CC(O)CO)C(=O)c1c(Br)c(NC(=O)CO)c(Br)c(C(=O)NCC(O)CO)c1Br (stereo not drawn)"
study_system = "erythrocyte morphology"
assigned_label = "no"

[[record]]
compound = "CN(C(=O)CC(=O)N(C)c1c(I)c(C(=O)NC(CO)C(O)CO)c(I)c(C(=O)NC(CO)C(O)CO)c1I)c1c(I)c(C(=O)NC(CO)C(O)CO)c(I)c(C(=O)NC(CO)C(O)CO)c1I (stereo not drawn) [Iotrolan, reference compound]"
study_system = "erythrocyte morphology"
assigned_label = "no"

